Target: T1, CRBN, Q96SW2;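 also: pooled lentiviral library of zinc finger degron-EGFP fusions in mCherry-positive Jurkat cells, FACS-sorted after compound exposure, with degron abundance counted by next-generation sequencing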
T1 chain: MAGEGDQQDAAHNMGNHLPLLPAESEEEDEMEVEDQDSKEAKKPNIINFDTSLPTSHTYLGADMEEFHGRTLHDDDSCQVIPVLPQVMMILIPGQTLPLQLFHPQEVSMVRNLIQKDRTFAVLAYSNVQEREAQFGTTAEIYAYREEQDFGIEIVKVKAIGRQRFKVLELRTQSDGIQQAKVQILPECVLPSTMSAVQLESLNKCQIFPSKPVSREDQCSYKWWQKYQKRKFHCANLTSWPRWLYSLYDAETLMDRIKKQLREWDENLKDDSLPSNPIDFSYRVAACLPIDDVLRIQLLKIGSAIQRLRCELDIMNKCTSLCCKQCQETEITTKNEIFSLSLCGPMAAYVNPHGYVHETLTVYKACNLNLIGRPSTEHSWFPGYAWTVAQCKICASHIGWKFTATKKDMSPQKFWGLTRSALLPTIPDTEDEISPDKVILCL
Assay: log2 fold change of degron read counts, EGFP-low vs EGFP+ sorted cells (limma voom), compound-induced degradation; higher = more compound-induced degradation of the degron-EGFP fusion; degrons are variants of IKZF1/3 zinc finger 2; compound dose not given here
Settings: Jurkat; 18 h; compound: compound 22 (5-morpholino-thalidomide)
In all, about 8,300 sequences were measured (“log2 fold change of degron read counts, EGFP-low vs EGFP+ sorted cells (limma voom), compound-induced degradation”: median about -1.1, highest 2% from about 3.2 on). The entries come from a sample that favours the highest values as a whole.
quantity: log2 fold change of degron read counts

Illustrative cases are given below, each with its answer.
FLCEICGASFTQKGNLLRHIKL [46F_47L_49E_50I_52G_53A_54S_55F_67L_, Q9UKT9]
-0.0236
FVCEICGASFTQKGNLLRHIKL [46F_47V_49E_50I_52G_53A_54S_55F_67L_, Q9UKT9]
2.28
FICEICGASFTQKGNLLRHIKL [46F_47I_49E_50I_52G_53A_54S_55F_67L_, Q9UKT9]
2.73
FACEICGASFTQKGNLLRHIKL [46F_47A_49E_50I_52G_53A_54S_55F_67L_, Q9UKT9]
2.8

# context switch: different sequence, same log2 fold change of degron read counts
q: Look up log2 fold change of degron read counts for this sequence: FYCPICGHYFTQKGNLLRHIKL [46F_47Y_49P_50I_52G_53H_54Y_55F_67L_, Q9UKT9]
a: -1.44
